- assay: AUC (0 to infinity) in Sprague-Dawley rat at 10 mg/kg, po by LC-MS/MS analysis
- Assay type: ADME, organism-based
- Parameters: dose 10 mg/kg, time infinity, route oral
- recorded.conditions: in vivo
metric: AUC(0-inf)

>>> recorded_value("CN1CCN(Cc2ccc(NC(=O)CCSc3ccc4c(/C=C/c5ccccn5)n[nH]c4c3)cc2C(F)(F)F)CC1")
"266 ng·h/mL"

====

- assay: MRT (0 to t) in mouse at 10 mg/kg, po by LC-MS/MS analysis
- Format: ADME, organism-based
- recorded.conditions: in vivo
metric: MRT last

>>> recorded_value("CN1CCN(Cc2ccc(NC(=O)CCSc3ccc4c(/C=C/c5ccccn5)n[nH]c4c3)cc2C(F)(F)F)CC1")
"3.3 h"

====

- assayed.system: Bcr/Abl fusion protein (Homo sapiens, UniProt P00519, T315I)
- assay: Inhibition of BCR/ABL T315I mutant (unknown origin) expressed in mouse BAF3 cells assessed as inhibition of STAT5 phosphorylation after 1 hr by immunoblotting analysis
- Type: cell-based
metric: EC50

>>> recorded_value("CN1CCN(Cc2ccc(NC(=O)CCSc3ccc4c(/C=C/c5ccccn5)n[nH]c4c3)cc2C(F)(F)F)CC1")
"< 0.01 µM"

====

- assay: Half life in Sprague-Dawley rat at 10 mg/kg, po by LC-MS/MS analysis
- Assay type: ADME, organism-based
- recorded.conditions: in vivo
metric: half-life (h)

>>> recorded_value("CN1CCN(Cc2ccc(NC(=O)CCSc3ccc4c(/C=C/c5ccccn5)n[nH]c4c3)cc2C(F)(F)F)CC1")
2.6

====

- assayed.system: Bcr/Abl fusion protein (Homo sapiens, UniProt P00519, T315I)
- assay: Inhibition of BCR/ABL T315I mutant (unknown origin) expressed in mouse BAF3 cells assessed as inhibition of CrkL phosphorylation after 1 hr by immunoblotting analysis
- Format: cell-based
metric: EC50

>>> recorded_value("CN1CCN(Cc2ccc(NC(=O)CCSc3ccc4c(/C=C/c5ccccn5)n[nH]c4c3)cc2C(F)(F)F)CC1")
"< 0.01 µM"

====

GI50 values, listed per item
- assayed.system: Bcr/Abl fusion protein (Homo sapiens) (UniProt P00519+P11274)
- recorded.conditions: BaF3
- Description: Inhibition of wild type BCR/ABL (unknown origin) transfected in mouse BAF3 cells assessed as growth inhibition after 72 hrs by CCK8 assay
metric: GI50 (µM)

>>> recorded_value("CCN1CCN(Cc2ccc(NC(=O)CCSc3ccc4c(/C=C/c5ccccn5)n[nH]c4c3)cc2C(F)(F)F)CC1")
0.004
>>> recorded_value("CN(C)CCN(C)Cc1ccc(NC(=O)CCSc2ccc3c(/C=C/c4ccccn4)n[nH]c3c2)cc1C(F)(F)F")
0.11
>>> recorded_value("O=C(CCSc1ccc2c(/C=C/c3ccccn3)n[nH]c2c1)Nc1cccc(C(F)(F)F)c1")
0.9
>>> recorded_value("Cc1ccc(NC(=O)CCSc2ccc3c(/C=C/c4ccccn4)n[nH]c3c2)cc1C(F)(F)F")
0.16
>>> recorded_value("CN1CCN(Cc2ccc(NC(=O)NCCSc3ccc4c(/C=C/c5ccccn5)n[nH]c4c3)cc2C(F)(F)F)CC1")
0.18
>>> recorded_value("CN1CCN(Cc2ccc(NC(=O)CCSc3ccc4c(/C=C/c5ccccn5)n[nH]c4c3)cc2C(F)(F)F)CC1")
0.007
>>> recorded_value("CN1CCN(Cc2ccc(NC(=O)CCSc3ccc4c(-c5ccccc5)n[nH]c4c3)cc2C(F)(F)F)CC1")
0.032
>>> recorded_value("O=C(CCSc1ccc2c(/C=C/c3ccccn3)n[nH]c2c1)Nc1ccc(F)c(C(F)(F)F)c1")
0.3
>>> recorded_value("O=C(CCSc1ccc2c(/C=C/c3ccccn3)n[nH]c2c1)NCc1cccc(C(F)(F)F)c1")
3.39
>>> recorded_value("O=C(NCCCSc1ccc2c(/C=C/c3ccccn3)n[nH]c2c1)c1cccc(C(F)(F)F)c1")
0.5
>>> recorded_value("COc1ccc(NC(=O)CCSc2ccc3c(/C=C/c4ccccn4)n[nH]c3c2)cc1C(F)(F)F")
0.59
>>> recorded_value("CN1CCN(Cc2ccc(NC(=O)CCSc3ccc4c(-c5ccncc5)n[nH]c4c3)cc2C(F)(F)F)CC1")
0.038
>>> recorded_value("O=C(CCSc1ccc2c(/C=C/c3ccccn3)n[nH]c2c1)Nc1ccc(Cl)c(C(F)(F)F)c1")
2.71
>>> recorded_value("CN1CCN(Cc2ccc(C(=O)NCCSc3ccc4c(/C=C/c5ccccn5)n[nH]c4c3)cc2C(F)(F)F)CC1")
0.75
>>> recorded_value("O=C(CCSc1ccc2c(/C=C/c3ccccn3)n[nH]c2c1)Nc1ccccc1")
0.5
>>> recorded_value("O=C(NCCSc1ccc2c(/C=C/c3ccccn3)n[nH]c2c1)c1cccc(C(F)(F)F)c1")
2.72
>>> recorded_value("Cc1cccc(NC(=O)CCSc2ccc3c(/C=C/c4ccccn4)n[nH]c3c2)c1")
3.15

====

- assay: Apparent volume of distribution during terminal phase in Sprague-Dawley rat at 1 mg/kg, iv by LC-MS/MS analysis
- Type: ADME, organism-based
- recorded.conditions: in vivo, read-out: Vz
metric: Vd (L/kg)

>>> recorded_value("CN1CCN(Cc2ccc(NC(=O)CCSc3ccc4c(/C=C/c5ccccn5)n[nH]c4c3)cc2C(F)(F)F)CC1")
17.7

====

- assay: Half life in mouse at 10 mg/kg, po by LC-MS/MS analysis
- Assay type: ADME, organism-based
- recorded.conditions: in vivo
metric: half-life (min)

>>> recorded_value("CN1CCN(Cc2ccc(NC(=O)CCSc3ccc4c(/C=C/c5ccccn5)n[nH]c4c3)cc2C(F)(F)F)CC1")
120

====

- assay: AUC (0 to t) in mouse at 1 mg/kg, iv by LC-MS/MS analysis
- Assay type: ADME, organism-based
- recorded.conditions: in vivo
metric: AUC(0-t) (ng·h/mL)

>>> recorded_value("CN1CCN(Cc2ccc(NC(=O)CCSc3ccc4c(/C=C/c5ccccn5)n[nH]c4c3)cc2C(F)(F)F)CC1")
148

====

GI50 values, listed per item
- assayed.system: Bcr/Abl fusion protein (Homo sapiens) (UniProt P00519+P11274)
- recorded.conditions: BaF3
metric: GI50 (µM)

>>> recorded_value("O=C(CCSc1ccc2c(/C=C/c3ccccn3)n[nH]c2c1)Nc1cccc(F)c1")
1.51
>>> recorded_value("CN1CCN(Cc2ccc(NC(=O)CCSc3ccc4c(-c5cccnc5)n[nH]c4c3)cc2C(F)(F)F)CC1")
0.07
>>> recorded_value("Cc1n[nH]c2cc(SCCC(=O)Nc3ccc(CN4CCN(C)CC4)c(C(F)(F)F)c3)ccc12")
0.33
>>> recorded_value("CN1CCN(c2cccc(NC(=O)CCSc3ccc4c(/C=C/c5ccccn5)n[nH]c4c3)c2)CC1")
8.24
>>> recorded_value("CN1CCN(Cc2ccc(C(=O)NCCCSc3ccc4c(/C=C/c5ccccn5)n[nH]c4c3)cc2C(F)(F)F)CC1")
0.022
>>> recorded_value("CN1CCN(Cc2ccc(NC(=O)CCSc3ccc4c(-c5cnn(C)c5)n[nH]c4c3)cc2C(F)(F)F)CC1")
0.015
>>> recorded_value("Cc1ccc(NC(=O)CCSc2ccc3c(/C=C/c4ccccn4)n[nH]c3c2)cc1")
2.87
>>> recorded_value("O=C(NCCSc1ccc2c(/C=C/c3ccccn3)n[nH]c2c1)Nc1cccc(C(F)(F)F)c1")
2.74
>>> recorded_value("O=C(CCSc1ccc2c(/C=C/c3ccccn3)n[nH]c2c1)Nc1ccc(CN2CCOCC2)c(C(F)(F)F)c1")
0.16

====

- assay: Antiproliferative activity in mouse BAF3 cells after 72 hrs by CCK8 assay
- Format: cell-based
metric: GI50 at 72 h (µM)

>>> recorded_value("CN1CCN(Cc2ccc(NC(=O)CCSc3ccc4c(-c5ccncc5)n[nH]c4c3)cc2C(F)(F)F)CC1")
1.06
>>> recorded_value("CNC(=O)c1ccccc1Sc1ccc2c(/C=C/c3ccccn3)n[nH]c2c1 [AXITINIB]")
1.64
>>> recorded_value("O=C(CCSc1ccc2c(/C=C/c3ccccn3)n[nH]c2c1)Nc1ccc(F)c(C(F)(F)F)c1")
0.61
>>> recorded_value("O=C(CCSc1ccc2c(/C=C/c3ccccn3)n[nH]c2c1)Nc1cccc(Cl)c1")
9.35

====

- Test system: Bcr/Abl fusion protein (Homo sapiens), P00519+P11274 [T315I]
- recorded.conditions: BaF3
Threshold 100 nM: GI50 strictly smaller gives criterion met, otherwise criterion not met.

>>> cat("CNC(=O)CCSc1ccc2c(/C=C/c3ccccn3)n[nH]c2c1")
"criterion not met"
>>> cat("O=C(CCSc1ccc2c(/C=C/c3ccccn3)n[nH]c2c1)Nc1cccc(C(F)(F)F)c1")
"criterion not met"
>>> cat("CN1CCN(Cc2ccc(NC(=O)CCSc3ccc4c(-c5ccncc5)n[nH]c4c3)cc2C(F)(F)F)CC1")
"criterion met"
>>> cat("O=C(CCSc1ccc2c(/C=C/c3ccccn3)n[nH]c2c1)Nc1ccccc1")
"criterion not met"
>>> cat("O=C(CCSc1ccc2c(/C=C/c3ccccn3)n[nH]c2c1)Nc1cccc(F)c1")
"criterion not met"
>>> cat("CN1CCN(Cc2ccc(NC(=O)NCCSc3ccc4c(/C=C/c5ccccn5)n[nH]c4c3)cc2C(F)(F)F)CC1")
"criterion not met"
>>> cat("CN1CCN(Cc2ccc(NC(=O)CCSc3ccc4c(-c5cccnc5)n[nH]c4c3)cc2C(F)(F)F)CC1")
"criterion met"
>>> cat("Cc1ccc(NC(=O)CCSc2ccc3c(/C=C/c4ccccn4)n[nH]c3c2)cc1C(F)(F)F")
"criterion met"
>>> cat("O=C(NCCSc1ccc2c(/C=C/c3ccccn3)n[nH]c2c1)Nc1cccc(C(F)(F)F)c1")
"criterion not met"
>>> cat("CN1CCN(Cc2ccc(C(=O)NCCSc3ccc4c(/C=C/c5ccccn5)n[nH]c4c3)cc2C(F)(F)F)CC1")
"criterion not met"
>>> cat("CN1CCN(Cc2ccc(NC(=O)CCSc3ccc4c(-c5ccccc5)n[nH]c4c3)cc2C(F)(F)F)CC1")
"criterion not met"
>>> cat("COc1cccc(NC(=O)CCSc2ccc3c(/C=C/c4ccccn4)n[nH]c3c2)c1")
"criterion not met"

Data provenance: ChEMBL document CHEMBL4382204
